Target: T1, FX activation peptide 12-mer TSSSGEAPDSIT (human)
T1 peptide: TSSSGEAPDSIT-biotin
Assay: peptide ELISA
Ends that are not written are not given here.
Below, each of the binders is paired with its reported ELISA signal relative to background value.
Answer with a bare number; do not write a unit.

Use the examples below as a reference point.
Nb 701C06 (VHH, monovalent Nanobody; not shown: C-terminal FLAG3 and HIS6 tag) VHH: EVQLVESGGGVVQPGGSLRLSCAASGRTFSTYAMGWFRQAPGKEREFVAAISRRGGRTYYADSVKGRFTISRDNSKNTVYLQMNSLRPEDTALYYCAADATARDGLLDYWGQGTLVTVSS	0.87
Nb 730C03 (VHH, monovalent Nanobody; also called Nb 730003; not shown: C-terminal FLAG3 and HIS6 tag) VHH: EVQLVESGGGVVQPGGSLRLSCVASGFTFSDYAMSWVRQAPGKGLEWVSGITSGSGRTYYADSVKGRFTISRDNSKNTVYLQMNSLRPEDTALYYCAAAILRGYRKTYDYWGQGTLVTVSS	1.2

Now, please, on to the next binder.
Sample Nb 701D07 (VHH, monovalent Nanobody; not shown: C-terminal FLAG3 and HIS6 tag) VHH: EVQLVESGGGVVQPGGSLRLSCAASGGTLSRYAMGWFRQAPGKEREFVAAITRRGSRTYYADSVKGRFTISRDNSKNTVYLQMNSLRPEDTALYYCAADLAPGDYALDYWGQGTLVTVSS — what was its ELISA signal relative to background? 0.75
